tested on: RPMI-8226 leukemia; test: NCI tumour cell line growth inhibition, 48 h; in the data active means GI50 below about 0.43 µM; inactive means the rest
Outcomes: active, inactive

compound | class-assignment
Oc1c(CN2CCC(N3CCCCC3)CC2)cc(Cc2cc(CN3CCC(N4CCCCC4)CC3)c(O)c3ncccc23)c2cccnc12 | inactive
COc1cc(C2NC(=O)c3ccccc3N2)ccc1OCCCCCOc1c(OC)cc(C2=NOC(c3cc(OC)c(OC)c(OC)c3)C2)cc1OC (configuration not stated) | active
O=C1CCCCN1CCCCC#Cc1ccccc1C#Cc1ccc([N+](=O)[O-])cc1 | active
CCCn1cnc2c(SCc3ccccc3Cl)nc(N)nc21 | inactive
C[C@@H]1OC(O)[C@@H](F)[C@H](O)[C@@H]1O (some centres not stated) | inactive
CCOC(=O)[C]1([Bi]([CH3])[CH3])N=NC(C(=O)OC)=C1C(=O)OC (configuration not stated) | inactive
CC(C)(C)OC(=O)N1CCc2c(sc3ncnc(N/N=C/c4cccc5ccccc45)c23)C1 | inactive
O=c1[nH]ncc(Br)c1Br | inactive
CC[C@]1(O)C[C@@H]2CN(CCc3c([nH]c4ccccc34)[C@@](C(=O)OC)(c3cc4c(cc3OC)N(C)[C@H]3[C@@](O)(C(=O)OC)[C@H](OC(C)=O)[C@]5(CC)C=CCN6CC[C@]43[C@@H]65)C2)C1 | active
N#Cc1c(-c2ccc(F)cc2)nc(N/N=C/c2c[nH]c3ccccc23)nc1N1CCOCC1 | inactive
CC[CH2][Sn]([CH2]CC)([O]C(=O)c1cccnc1SC)[O][Sn]([CH2]CC)([CH2]CC)[O]C(=O)c1cccnc1SC | active
CCN(CC)CCOc1ccc(/C(=C(\Cl)c2ccccc2)c2ccccc2)cc1 | inactive

Origin of measurements: PubChem BioAssay (NCI)
